# Target or test system: FXR ligand binding domain (Homo sapiens, UniProt Q96RI1)
# Sequence (Q96RI1 211-483 limits assumed): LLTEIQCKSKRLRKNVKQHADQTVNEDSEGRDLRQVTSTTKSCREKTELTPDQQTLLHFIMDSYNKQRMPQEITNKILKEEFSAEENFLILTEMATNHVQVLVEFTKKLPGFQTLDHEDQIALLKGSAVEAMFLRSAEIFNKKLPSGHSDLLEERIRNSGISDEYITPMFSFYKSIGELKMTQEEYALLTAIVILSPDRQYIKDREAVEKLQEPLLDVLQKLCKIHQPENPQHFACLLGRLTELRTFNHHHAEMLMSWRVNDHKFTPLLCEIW
pIC50: −log10 of the molar value.
Reported property: pIC50

// below: answered compounds
>  <Compound>
O=C(NC1CCCCC1)C(c1c2c(nn1-c1ccc(Cl)cc1)CCC2)C1CCCCC1 (stereo not shown)

>  <Reported property>
pIC50

>  <Quantitative readout>
5.48

$$$$
>  <Compound>
CC(C)(Oc1ccc(NC(=O)C(c2c3c(nn2-c2ccc(Cl)cc2)CCCCC3)C2CCCCC2)c(F)c1)C(=O)O (stereo not shown)

>  <Reported property>
pIC50

>  <Quantitative readout>
5.89

$$$$

(a) N#Cc1ccc(OCC(c2c3c(nn2-c2ccc(Cl)cc2)CCC3)C2CCCCC2)c(F)c1 (stereo not shown)
(b) O=C(O)c1ccc(NC(=O)C(c2c3c(nn2-c2ccc(Cl)cc2)CCC3)C2CCCCC2)c(F)c1 (stereo not shown)
INPUT: Of a and b , which one carries the higher reported pIC50? // respond with label for picked entry
OUTPUT: b

* * *

# Target or test system: FXR ligand binding domain (Homo sapiens)
pIC50: −log10 of the molar value.
Reported property: pIC50

>  <Molecule>
COC(=O)c1cc(C)c(OCC(c2c3c(nn2-c2ccc(Cl)cc2)CCC3)C2CCCCC2)c(C)c1 (stereo not shown) [Example 1]

>  <pIC50>
4.54

$$$$

(I) CCOC(=O)C(C)(C)Oc1ccc(NC(=O)C(c2c3c(nn2-c2ccc(Cl)cc2)CCCCC3)C2CCCCC2)c(F)c1 (stereo not shown) [Example 9]
(II) O=C(O)c1ccc(NC(=O)C(c2c3c(nn2-c2ccc(Cl)cc2)CCCCC3)C2CCCCC2)c(F)c1 (stereo not shown) [Example 13]
(III) Cc1cc(C(=O)O)cc(C)c1OCC(c1c2c(nn1-c1ccc(Cl)cc1)CCCCC2)C1CCCCC1 (stereo not shown) [Example 15]
INPUT: Rank the items in ascending order with respect to pIC50. Ranked list of labels, please, in the requested order.
OUTPUT: I, II, III
(I: 4.67, II: 5.77, III: 6.28)
